- measurement-protocol: in vitro
- applied-conditions: human, Caco-2, pH 7.4, apparent permeability coefficient (Papp) of mannitol
property-name: Papp A→B at 2 h, 0.04 nM (×10⁻⁶ cm/s)
Expressed in ×10⁻⁶ cm/s, but write only the number.

Recall and state the measured Papp A→B at 2 h, 0.04 nM for OC[C@@H](O)[C@@H](O)[C@H](O)[C@H](O)CO [mannitol, mannitol, D -[1-^3H (n)]] .
0.79

====

- measurement-protocol: Flux of [3H]-TRH across Caco-2 monolayers
- Type: in vitro ADME, human
- applied-conditions: human, Caco-2
- Description: The cell monolayers were incubated as given in Example 4 above. A further 2 hour transepithelial transport study was carried out as above for [^3H]-TRH (0.12 nM) except that excess TRH (cold, 4.4 mM; Bachem, UK) was also administered apically. […] No significant difference between TRH Papp values at low concentrations (0.05-0.1 nM) and high TRH concentrations (4.4 mM) was observed providing evidence of passive TRH absorption across the monolayer. […]
property-name: Papp A→B at 2 h, 0.2 nM (×10⁻⁶ cm/s)
Expressed in ×10⁻⁶ cm/s, but write only the number.

Recall and state the measured Papp A→B at 2 h, 0.2 nM for NC(=O)[C@@H]1CCCN1C(=O)[C@H](Cc1cnc[nH]1)NC(=O)[C@@H]1CCC(=O)N1 [TRH, Thyrotropin releasing hormone] .
0.72

====

- measurement-protocol: in vitro
- applied-conditions: human, Caco-2, pH 7.4, Papp
property-name: Papp A→B at 2 h, 0.04 nM (×10⁻⁶ cm/s)
Expressed in ×10⁻⁶ cm/s, but write only the number.

Recall and state the measured Papp A→B at 2 h, 0.04 nM for OC[C@@H](O)[C@@H](O)[C@H](O)[C@H](O)CO [mannitol, mannitol, D -[1-^3H (n)]] .
0.79

Numbers sourced from patent US6423334B1.
